# Tested on: attenuated OP-CDV strain (OP^neon/nLucP)
# test-description: microbe, parasite or virus in culture
# Type: cell-based, canine distemper virus
# run-conditions: canine distemper virus, CDV (OP), Vero-cNectin-4 cells
measurement-label: pIC50
Please report pIC50 as the negative decimal logarithm of the molar concentration, giving only the number.

Looking up `CC1(C)Cc2cccc(OCC(=O)Nc3nc4ccccc4s3)c2O1` , I found its pIC50 recorded as 6.37

* * *

# Tested on: attenuated OP-CDV strain (OP^neon/nLucP)
# test-description: microbe, parasite or virus in culture
# Assay type: cell-based, canine distemper virus
# run-conditions: canine distemper virus, in Canis lupus familiaris, CDV (OP), P114 cells (canine)
measurement-label: pIC50
Please report pIC50 as the negative decimal logarithm of the molar concentration, giving only the number.

{"smi": "CC1(C)Cc2cccc(OCC(=O)Nc3nc4ccccc4s3)c2O1", "pIC50": 5.59}

Here is another compound to look at.
Looking up `CN(C(=O)COc1cccc2c1OC(C)(C)C2)c1nc2c(s1)CCCC2` , I found its pIC50 recorded as 7.72
